Data origin: paper PMC11434613

assay: MTT cytotoxicity assay on Cos-7 cells; assay type: cell-based, African green monkey; conditions: African green monkey, Cos-7 cells, 8.5 µM, read-out: Cell viability Cos-7 (MTT)
observed.property: viability at 24 h, 8.5 µM (%)
Give bare numbers, in %.

Please report the recorded viability at 24 h, 8.5 µM for c1ccc([P+](CCCCCCCCCCCC[P+](c2ccccc2)(c2ccccc2)c2ccccc2)(c2ccccc2)c2ccccc2)cc1 . 27.4

---

test: Presto Blue viability test on MRC-5 lung fibroblasts; format: cell-based, human; conditions: human, MRC-5 lung fibroblast cells; 1.0 µM; 72 h; read-out: Percentage of viable MRC-5 cells with respect to seeded cells at T0
observed.property: viability at 72 h, 1 µM (%)
Answers are plain numbers, in %.

Please report the recorded viability at 72 h, 1 µM for c1ccc([P+](CCCCCCCCCCCC[P+](c2ccccc2)(c2ccccc2)c2ccccc2)(c2ccccc2)c2ccccc2)cc1 [BPPB] . 30.6
